B1: Hairpin Ribozyme (parent)
chain: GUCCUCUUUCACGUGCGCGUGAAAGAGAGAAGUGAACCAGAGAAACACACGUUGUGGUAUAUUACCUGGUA

Variants of: B1
Assay: self-cleavage, relative activity (ratio to wild type); higher = more cleavage; co-transcriptional
# cutoff 0.4 applies to self-cleavage; >= gives Met, < gives Not met

Variant Descriptor	Class
A47G G54A	Not met
A23G G25U	Not met
A47U U55G	Not met
G25A G56U	Not met
G57C U67A	Not met
U33G G56C	Not met
C12G C50G	Not met
G34U A39C	Met
U7G A49G	Met
U9C G19C	Met
A22G U60C	Met
A41G U58C	Met
G15A C66A	Not met
C6A G27U	Not met
G29A A30G	Not met
A24C A30G	Not met
C10U G42A	Not met
A41U U60G	Met
G25A G32U	Not met
A41C U60C	Met
A11U U62C	Not met
A30G A35G	Not met
